test system: PAK6; details: concentration: 1 μM, replicates: in singlicate; n = 1;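 also: KINOMEscan kinase panel screen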
readout_label: %Inh (%)
Answers are plain numbers, in %.

Some solved entries appear below for comparison.
compound | measured_number
Cn1cc(-c2ccc3c(c2)CCN3C(=O)Cc2cccc(Cl)c2)c2c(N)ncnc21 | 0
CN(C)Cc1ccc(-c2ccc3c(Nc4ccc(Oc5ccccn5)cc4)ccnc3c2)o1 | 0
O=C(NC1CCN(c2ccnc(Nc3ccc(F)cc3)n2)C1)c1cc2ccccc2s1 (centres unmarked) | 0
COc1cccc(C(=O)Nc2cccc(Oc3ccc4nc(NC(=O)C5CC5)cn4n3)c2)c1 | 15
COc1ccc(Nc2nccc(N3CCC(NC(=O)Nc4cccc(OC)c4)C3)n2)cc1 (centres unmarked) | 0
CN(c1ccc(NC(=O)Nc2cc(C(F)(F)F)ccc2F)cc1)c1ccnc(Nc2ccc(S(N)(=O)=O)cc2)n1 | 10

// each listed compound needs a value for %Inh
1. Fc1ccc(-c2ncn(C3CCNCC3)c2-c2ccnc(Oc3ccc(-c4ccccc4)cc3)n2)cc1
2. COC(=O)Nc1nc2cc(Oc3ccc(NC(=O)Nc4cc(C(F)(F)F)ccc4F)cn3)ccc2[nH]1.Cl.Cl
3. Cc1cccc(Nc2nc(N[C@H]3CCNC3)ncc2C(N)=O)c1.Cl
4. C[C@@H](Oc1cc(-n2cnc3cc(-c4ccnc(NCCS(C)(=O)=O)c4)ccc32)sc1C(N)=O)c1ccccc1Cl
5. Cc1ccc(F)c(C(=O)Nc2cccc(-c3nn4ccccc4c3-c3ccnc(Nc4cccc(F)c4)n3)c2)c1F
6. FC(F)(F)c1ccc(/C=C/c2cncnc2Nc2ccc3[nH]c(Cc4ccccc4)nc3c2)cc1
7. Cc1ccc(S(=O)(=O)Nc2ccc(Nc3nccc(Nc4cccc5[nH]ncc45)n3)cc2)cc1

Result:
1. 25
2. 0
3. 78
4. 0
5. 0
6. 0
7. 18

// each listed compound needs a value for %Inh
1. COc1cccc(C2=C(Nc3ccc(Cl)c(C(=O)O)c3)C(=O)NC2=O)c1
2. COc1cc2c(cc1OCCN1CCNCC1)ncc1c3ccc(C#N)cc3[nH]c21
3. COc1cccc(-c2ccc3c(NC(=O)C4CC4)n[nH]c3n2)c1
4. Cn1cc(-c2[nH]c3cc(NC(=O)[C@H](N)C4CCCCC4)cc4c3c2C=NNC4=O)cn1

Result:
1. 6
2. 8
3. 0
4. 99.2
